All values here come from patent US20070265189A1.

target.system: T1, soluble human insulin receptor-immunoglobulin heavy chain chimera (sIR-Fc) (human, UniProt P06213 28-956, limits assumed)
T1 construct: extracellular domain; Construct of Bass et al., 1996; not shown: immunoglobulin heavy chain constant domains
assay.protocol: fluorescence polarization; competitor against 1 nM FITC-RP9 on sIR-Fc
attribute.measured: IC50

Name the recorded IC50 for FHENFYDWFVRQVSKK [H2C (D117)] .
66 nM
